Reported inhibition by item:
target: Glycogen synthase kinase-3 alpha (Homo sapiens); details: at 1 µM;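 further: each figure is a mean percent inhibition of GSK3A activity, from a screen of the GSK published kinase inhibitor set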
Recorded metric: inhibition (%)

• CCc1ccc(Oc2nccc(-c3c(-c4ccc(F)cc4)ncn3C3CCNCC3)n2)cc1 = 7.13
• CN(C)c1ccc2c(c1)/C(=C/Nc1ccc(S(N)(=O)=O)cc1)C(=O)N2 = 21.6
• CN(C)CCOc1ccc(-c2cc(-c3ccc4c(c3)CCC4=NO)c(-c3ccncc3)o2)cc1 = -0.36
• COc1cc(Nc2ncc3c(C)nc(-c4cccc(C(F)(F)F)c4)n3n2)cc(OC)c1OC = 13.8
• CCc1nccc2c1nc(-c1nonc1N)n2CC = 7.97
• O=C(Nc1n[nH]c2cc(-c3cc(F)ccc3F)ccc12)C1CC1 = 30.4
• CCc1cccc(CC)c1/C=C/c1cncc(C(=O)NC)c1 = 6.98
• c1ccc(-c2n[nH]cc2-c2ccnc(-c3ccc(OCCN4CCOCC4)cc3)c2)nc1 = 4.57
• CNC(=O)c1cncc(/C=C/c2c(C)cccc2C)c1 = -0.82
• COc1ccc(C2=C(N3CCc4ccccc43)C(=O)NC2=O)cc1 = 42.9
• c1ccc(Oc2ccc(Nc3ncc(-c4ccccc4)o3)cc2)cc1 = 5.53
• COc1cc(N2CCN(C(C)C)CC2)ccc1Nc1nc(Nc2ccc(F)cc2C(=O)NC[C@@H](O)CO)c2cc[nH]c2n1 = 0.1
• O=C(Nc1n[nH]c2cc(-c3ccccc3)ccc12)C1CC1 = 32.7
• CCS(=O)(=O)c1ccc(OC)c(Nc2ncc(-c3cccc(-c4ccccc4F)c3)o2)c1 = 9.24

----------
biological target: RAF proto-oncogene serine/threonine-protein kinase (Homo sapiens); conditions: at 1 µM;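 further: values are the mean percent inhibition of CRAF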
A collection of molecules and their measured inhibition
Recorded metric: inhibition (%)

- Clc1ccc(CNc2nccc(-c3cnn4ncccc34)n2)cc1: -1.19
- O=C(NCC1CC1)c1ccc(-c2cccc(C(=O)NC3CC3)c2)cc1: 7.69
- O=C(Nc1n[nH]c2nc(-c3ccco3)ccc12)C1CC1: 0.48
- CN(c1ccc(NC(=O)Nc2c(Cl)cccc2Cl)cc1)c1ccnc(Nc2cccc(CS(C)(=O)=O)c2)n1: 1.82

----------
# reported inhibition; entries follow
target: Cyclin-dependent kinase 6 (Homo sapiens); conditions: at 1 µM;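 further: mean percent inhibition of the kinase bound to its cyclin partner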
Recorded metric: inhibition

• NC(=O)c1cc(-c2ccc(F)cc2)cc(-c2ccncc2)c1N = -0.58%
• O=C1Nc2ccc(I)cc2C1=Cc1cc(Br)c(O)c(Br)c1 = 0.92%
• Cc1ccc(C(=O)NC2CCC2)cc1-c1ccc(C(=O)NCC2CC2)cc1 = 1.04%
• O=C(Nc1n[nH]c2cc(-c3ccccc3)ccc12)C1CC1 = 23.7%

----------
target: Cyclin-dependent kinase 4 (Homo sapiens); conditions: at 1 µM;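 further: enzyme tested as the CDK4–cyclin D complex, with the value reported as mean percent inhibition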
Recorded metric: inhibition (%)

- COc1ccc2cc(-c3c(-c4ccncc4)nc(-c4ccc(S(C)(=O)=O)cc4C)n3C)ccc2c1: 4.56
- O=C(NCC1CC1)c1ccc(-c2cccc(C(=O)NC3CC3)c2)cc1: 2.18
- NC(=O)c1cc(-c2ccncc2)cc(-c2ccccc2)c1N: 2.69
- C#Cc1cccc(Nc2ncnc3ccc(OCCCCNCCS(C)(=O)=O)cc23)c1: 0.97
- Clc1ccc(CNc2nccc(-c3cnn4ncccc34)n2)cc1: 20.1
- CCS(=O)(=O)c1ccc(OC)c(Nc2ncc(-c3cccc(-c4ccccc4F)c3)o2)c1: -0.45
- COC(=O)Nc1nc2ccc(Sc3ccc(NC(=O)Nc4cc(C(F)(F)F)ccc4F)cc3)cc2[nH]1: 1.81
- CCS(=O)(=O)c1ccc(OC)c(Nc2ncc(-c3ccccc3Cl)o2)c1: -0.72
- Fc1ccc(-c2ncn(C3CCNCC3)c2-c2ccnc(Oc3ccc4c(c3)OCO4)n2)cc1: 3.63
- FC(F)(F)c1cccc(Nc2nccc(-c3cnn4nc(-c5ccccc5)ccc34)n2)c1: 5.84
- COc1ccc(C2=C(N3CCc4ccccc43)C(=O)NC2=O)cc1: 4.61
- NS(=O)(=O)c1ccc(Nc2cc(-c3ccc(O)c(F)c3)n[nH]2)cc1: 23.6
- Cc1ccc(C(=O)NC2CCC2)cc1-c1ccc(C(=O)NCC2CC2)cc1: 3.14
- COc1ccc(-c2ccc3c(NC(=O)C4CC4)n[nH]c3n2)cc1: 11.4
- CCc1nccc2c1nc(-c1nonc1N)n2CC: 2.76
- Fc1ccc(-c2c(-c3ccncc3)nc3n2CCS3)cc1: -1.15
- Cc1ccc(C(=O)NC(C)C)cc1-c1ccc(C(=O)NCC2CC2)cc1: 0.6
- COc1cc2ncn(-c3cc(OCc4ccccc4C(F)(F)F)c(C(C)=O)s3)c2cc1OC: 2.66
- CN(C)c1ccc2c(c1)/C(=C/Nc1ccc(S(N)(=O)=O)cc1)C(=O)N2: 43.5
- CCN(CC)Cc1ccc(Nc2nccc(-c3cnn4ncccc34)n2)cc1: 69.8
- C[C@@H](Oc1cc(-n2cnc3ccc(OCC4CCN(C)CC4)cc32)sc1C(N)=O)c1ccccc1Cl: 7.39
- NS(=O)(=O)c1ccc(N/N=C2\C(=O)Nc3ccc(-c4cnco4)cc32)cc1: 42
- COc1cc(Nc2ncc3c(C)nc(-c4cccc(C(F)(F)F)c4)n3n2)cc(OC)c1OC: 3.89
